# Tested on: THRa:RXRa (NR concentration 90 nM, RXRa partner concentration 90 nM)
# PROTOCOL_NOTES: PBM binding z-score (relative to random genomic background probes); higher = stronger binding; sequences stand for … in GC…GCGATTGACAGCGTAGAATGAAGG
QUANTITY: PBM binding z-score

>  <SEQUENCE_STRING>
ATCTCTATGTAAAGATAGTTCAGTGAATGCAAAT

>  <SYSTEM>
THRa:RXRa (NR concentration 90 nM, RXRa partner concentration 90 nM)

>  <QUANTITY>
PBM binding z-score

>  <OBSERVED_VALUE>
0.271

$$$$
>  <SEQUENCE_STRING>
TCTTGGAGGACACGAAAGGTCAGAGCTCGACATC

>  <SYSTEM>
THRa:RXRa (NR concentration 90 nM, RXRa partner concentration 90 nM)

>  <QUANTITY>
PBM binding z-score

>  <OBSERVED_VALUE>
3.89

$$$$
>  <SEQUENCE_STRING>
CCTTACGGGTCAAGGTTATGGCACGGGTGGTACG

>  <SYSTEM>
THRa:RXRa (NR concentration 90 nM, RXRa partner concentration 90 nM)

>  <QUANTITY>
PBM binding z-score

>  <OBSERVED_VALUE>
3

$$$$
>  <SEQUENCE_STRING>
ATCTCTAGGTAAACTTCAGTGAAAGATCGATAGA

>  <SYSTEM>
THRa:RXRa (NR concentration 90 nM, RXRa partner concentration 90 nM)

>  <QUANTITY>
PBM binding z-score

>  <OBSERVED_VALUE>
0.667

$$$$
>  <SEQUENCE_STRING>
ATCTCTAGGTAAGACTCAGTTCAGTTAAGAACGC

>  <SYSTEM>
THRa:RXRa (NR concentration 90 nM, RXRa partner concentration 90 nM)

>  <QUANTITY>
PBM binding z-score

>  <OBSERVED_VALUE>
1.44

$$$$
>  <SEQUENCE_STRING>
CCTAGGTGGTCAAGGTCACACACGCTATAGGTAC

>  <SYSTEM>
THRa:RXRa (NR concentration 90 nM, RXRa partner concentration 90 nM)

>  <QUANTITY>
PBM binding z-score

>  <OBSERVED_VALUE>
4.09

$$$$
>  <SEQUENCE_STRING>
TCGAGTAGGTTAGTCGGGGAATTCAGCCAACATA

>  <SYSTEM>
THRa:RXRa (NR concentration 90 nM, RXRa partner concentration 90 nM)

>  <QUANTITY>
PBM binding z-score

>  <OBSERVED_VALUE>
0.163

$$$$
>  <SEQUENCE_STRING>
AGAATGCGGTTATACGTAGATCAGGGAAGAAAGT

>  <SYSTEM>
THRa:RXRa (NR concentration 90 nM, RXRa partner concentration 90 nM)

>  <QUANTITY>
PBM binding z-score

>  <OBSERVED_VALUE>
-0.31

$$$$
>  <SEQUENCE_STRING>
ATATGTAGGTTAAGGGCCATTCAGGTTGGTTCGC

>  <SYSTEM>
THRa:RXRa (NR concentration 90 nM, RXRa partner concentration 90 nM)

>  <QUANTITY>
PBM binding z-score

>  <OBSERVED_VALUE>
1.17

$$$$
>  <SEQUENCE_STRING>
TCGAGTAGGTTAGTCGGGGCGTTCAGCCAACATA

>  <SYSTEM>
THRa:RXRa (NR concentration 90 nM, RXRa partner concentration 90 nM)

>  <QUANTITY>
PBM binding z-score

>  <OBSERVED_VALUE>
0.808

$$$$
>  <SEQUENCE_STRING>
GCTTGTAGATCAAGGTTAAGAATGACTAAGCTAA

>  <SYSTEM>
THRa:RXRa (NR concentration 90 nM, RXRa partner concentration 90 nM)

>  <QUANTITY>
PBM binding z-score

>  <OBSERVED_VALUE>
1.08

$$$$
>  <SEQUENCE_STRING>
ACTTACGGGTCAACGAGGTTCTAGCACGCGTATA

>  <SYSTEM>
THRa:RXRa (NR concentration 90 nM, RXRa partner concentration 90 nM)

>  <QUANTITY>
PBM binding z-score

>  <OBSERVED_VALUE>
3.34

$$$$
>  <SEQUENCE_STRING>
CGTCTAAGTTCAACTAAGGTAACGTAAAGCACGC

>  <SYSTEM>
THRa:RXRa (NR concentration 90 nM, RXRa partner concentration 90 nM)

>  <QUANTITY>
PBM binding z-score

>  <OBSERVED_VALUE>
4.95

$$$$
>  <SEQUENCE_STRING>
CCGGCTGGGGCAAGGTTACCATAACGCACAGCCA

>  <SYSTEM>
THRa:RXRa (NR concentration 90 nM, RXRa partner concentration 90 nM)

>  <QUANTITY>
PBM binding z-score

>  <OBSERVED_VALUE>
1.03

$$$$
>  <SEQUENCE_STRING>
ATCGAAAGGTCGTGAGGTCAGTATACAGAAAGGC

>  <SYSTEM>
THRa:RXRa (NR concentration 90 nM, RXRa partner concentration 90 nM)

>  <QUANTITY>
PBM binding z-score

>  <OBSERVED_VALUE>
4.25

$$$$
>  <SEQUENCE_STRING>
AGTCAAAGTTCAGGACGAGGTGACGTAAAGCACG

>  <SYSTEM>
THRa:RXRa (NR concentration 90 nM, RXRa partner concentration 90 nM)

>  <QUANTITY>
PBM binding z-score

>  <OBSERVED_VALUE>
3.93

$$$$
>  <SEQUENCE_STRING>
GCTGCTAGGTCAGGTTGGTCAGCTACCGGGTACG

>  <SYSTEM>
THRa:RXRa (NR concentration 90 nM, RXRa partner concentration 90 nM)

>  <QUANTITY>
PBM binding z-score

>  <OBSERVED_VALUE>
1.76

$$$$
>  <SEQUENCE_STRING>
ACTCGGAGGACGAAGGTCAGAGCTACGCCAGTGA

>  <SYSTEM>
THRa:RXRa (NR concentration 90 nM, RXRa partner concentration 90 nM)

>  <QUANTITY>
PBM binding z-score

>  <OBSERVED_VALUE>
1.64

$$$$
>  <SEQUENCE_STRING>
CTACCAAGGTGAACAAGGTCGTTGGTTACTATTC

>  <SYSTEM>
THRa:RXRa (NR concentration 90 nM, RXRa partner concentration 90 nM)

>  <QUANTITY>
PBM binding z-score

>  <OBSERVED_VALUE>
3.19

$$$$
>  <SEQUENCE_STRING>
TCATATAGGTAAATGCTAGGTGAAGGTCCGATCT

>  <SYSTEM>
THRa:RXRa (NR concentration 90 nM, RXRa partner concentration 90 nM)

>  <QUANTITY>
PBM binding z-score

>  <OBSERVED_VALUE>
1.43

$$$$
>  <SEQUENCE_STRING>
AGTCAAAGTTCATCTAGGTAAAGTAAGATATGCT

>  <SYSTEM>
THRa:RXRa (NR concentration 90 nM, RXRa partner concentration 90 nM)

>  <QUANTITY>
PBM binding z-score

>  <OBSERVED_VALUE>
3.07

$$$$

---

# Test system: PXR homodimer (NR concentration 270 nM)
# PROTOCOL_NOTES: PBM binding z-score (relative to random genomic background probes); higher = stronger binding; sequences stand for … in GC…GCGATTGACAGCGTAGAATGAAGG

>  <SEQUENCE_STRING>
TCGAGTAGGCTACCAATGGGGCATTCAGCTTTCT

>  <SYSTEM>
PXR homodimer (NR concentration 270 nM)

>  <PBM binding z-score>
-0.888

$$$$
>  <SEQUENCE_STRING>
CCTCGGAGGACAGAAGGTCAGAGGTGTCCGCTTT

>  <SYSTEM>
PXR homodimer (NR concentration 270 nM)

>  <PBM binding z-score>
0.183

$$$$
>  <SEQUENCE_STRING>
CCTACTGGGCCATCAGGTCCTTGATATCAACGTT

>  <SYSTEM>
PXR homodimer (NR concentration 270 nM)

>  <PBM binding z-score>
-0.404

$$$$
>  <SEQUENCE_STRING>
CAAACTAGGTTAAGAGGTCAAAGTCCGCTTCCCG

>  <SYSTEM>
PXR homodimer (NR concentration 270 nM)

>  <PBM binding z-score>
2.31

$$$$
>  <SEQUENCE_STRING>
TGAATGAGGTTATAATATCAGGGAACGTTGCAAA

>  <SYSTEM>
PXR homodimer (NR concentration 270 nM)

>  <PBM binding z-score>
0.111

$$$$
>  <SEQUENCE_STRING>
CCTAGCATGCCAGGGTCACTCAAGCATTTCGCTT

>  <SYSTEM>
PXR homodimer (NR concentration 270 nM)

>  <PBM binding z-score>
-0.116

$$$$
>  <SEQUENCE_STRING>
GAGACAGGGTCAGCTAGAGGCCAGAGTATGGAAA

>  <SYSTEM>
PXR homodimer (NR concentration 270 nM)

>  <PBM binding z-score>
0.373

$$$$
>  <SEQUENCE_STRING>
CGTCCAAGCTCAATGCTAGGTCAGTGAAAGCATT

>  <SYSTEM>
PXR homodimer (NR concentration 270 nM)

>  <PBM binding z-score>
-0.275

$$$$
>  <SEQUENCE_STRING>
GATACAGAGTCAAGGCCAGAGTACGCGTATTGAT

>  <SYSTEM>
PXR homodimer (NR concentration 270 nM)

>  <PBM binding z-score>
-0.253

$$$$
>  <SEQUENCE_STRING>
TATCCTAGGTCATGGGCCAGTATACCACGCGAAC

>  <SYSTEM>
PXR homodimer (NR concentration 270 nM)

>  <PBM binding z-score>
0.762

$$$$
>  <SEQUENCE_STRING>
GGAACGAGGGCATTCGAGTAGATAGCATGGCGAT

>  <SYSTEM>
PXR homodimer (NR concentration 270 nM)

>  <PBM binding z-score>
-0.0789

$$$$
